Entries and their Tumor volume, Day 9 values follow.
# System: HCT-116 colon cancer xenografts
# assay-remarks: Tumor growth inhibition of HCT-116 colon cancer xenografts in tumor-bearing nude mice (tumor volume, TGI %, RTV, T/C %)
# Format: in vivo, Balb/c Nude mice
# test-parameters: Day 9; G10-G16 groups; single IP 400 mg/kg; Mean±SEM
Marks after values point to notes of the source that are not given here.

// known answers, use as guide
1. CCCCOC(=O)Nc1nc(=O)n(C2OC(COC(=O)COc3nc(Cl)c(Cl)cc3Cl)C(O)C2(F)F)cc1I (stereo not drawn) = 382.62 ± 103.38 mm^3
2. CCCCOC(=O)Nc1nc(=O)n(C2OC(COC(=O)COc3nc(Cl)c(Cl)cc3Cl)C(O)C2(F)F)cc1Br (stereo not drawn) = 390.87 ± 115.68 mm^3

# input compound: O=C(COc1nc(Cl)c(Cl)cc1Cl)OCC1OC(n2cc(-c3cn(Cc4ccccc4)nn3)c(NC(=O)OCc3ccc([N+](=O)[O-])cc3)nc2=O)C(F)(F)C1O (stereo not drawn) ; wanted: its Tumor volume, Day 9
261.35 ± 79.51* mm^3

What do you get for O=C(COc1nc(Cl)c(Cl)cc1Cl)OC[C@H]1O[C@@H](n2cc(Br)c(NC(=O)OCc3ccccc3)nc2=O)C(F)(F)C1O (stereo partly drawn) ?
393.47 ± 68.53 mm^3

For CCCCOC(=O)Nc1nc(=O)n([C@@H]2O[C@H](COC(=O)Cn3cnc([N+](=O)[O-])c3)C(O)C2(F)F)cc1I (stereo partly drawn) then?
300.88 ± 62.43* mm^3

Same question for CCCCOC(=O)Nc1nc(=O)n(C2OC(COC(=O)COc3nc(Cl)c(Cl)cc3Cl)C(O)C2(F)F)cc1-c1cn(Cc2ccccc2)nn1 (stereo not drawn) please.
47.71 ± 0.00** mm^3
